target: recombinant USP30 (amino acids 57-517 of the human sequence) (Homo sapiens (Human)); assay: In vitro USP30 biochemical assay (Ubiquitin-Rhodamine substrate); details: 1.5 nM recombinant USP30, 25 nM Ubiquitin-Rhodamine, fluorescence
Listing of entries alongside the reported IC50.

# input // query IC50 value for entry "CC(C)C[C@H](NC(=O)c1ccc(F)cc1)C(=O)Nc1ccc(S(=O)(=O)NCc2ccnn2C)cc1"
# output 0.05 to 1 µM

###

target: recombinant USP30 (amino acids 57-517 of the human sequence) (Homo sapiens (Human), UniProt Q70CQ3); assay: In vitro USP30 biochemical assay (Ubiquitin-Rhodamine substrate); details: 1.5 nM recombinant USP30, 25 nM Ubiquitin-Rhodamine, fluorescence
Sequence (Q70CQ3 57-517): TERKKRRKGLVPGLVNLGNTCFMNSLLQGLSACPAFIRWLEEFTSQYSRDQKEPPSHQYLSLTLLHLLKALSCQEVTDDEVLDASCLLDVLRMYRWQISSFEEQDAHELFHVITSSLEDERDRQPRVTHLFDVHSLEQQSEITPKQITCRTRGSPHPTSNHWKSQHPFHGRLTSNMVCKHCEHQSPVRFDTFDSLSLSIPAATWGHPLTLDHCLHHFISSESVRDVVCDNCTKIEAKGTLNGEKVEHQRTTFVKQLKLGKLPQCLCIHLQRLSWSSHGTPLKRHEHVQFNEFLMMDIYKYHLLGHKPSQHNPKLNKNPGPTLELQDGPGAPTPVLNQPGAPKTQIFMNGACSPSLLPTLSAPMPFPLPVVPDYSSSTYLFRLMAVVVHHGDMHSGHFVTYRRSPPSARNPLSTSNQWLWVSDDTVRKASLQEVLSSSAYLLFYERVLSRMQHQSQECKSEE
reported-metric: IC50

Below, each entry is followed by its recorded IC50 result.
compound=COc1cc(NC(=O)[C@H](Cc2ccccc2)NC(=O)c2ccc(F)cc2)ccc1S(=O)(=O)N[C@H](C)CO result_value="0.05 to 1 µM"
compound=CC(C)(C)NS(=O)(=O)c1ccc(NC(=O)[C@@H]2CCCN2C(=O)c2ccc(F)cc2)cc1 result_value="1 to 10 µM"
compound=CC(C)(C)NS(=O)(=O)c1ccc(NC(=O)[C@H](CC2CCN(C(=O)OCc3ccccc3)CC2)NC(=O)N2CCOCC2)cc1 result_value="0.05 to 1 µM"
compound=CC(C)(CO)NS(=O)(=O)c1ccc(NC(=O)[C@H](CC2CC2)NC(=O)c2ccc(F)cc2)cc1 result_value="0.05 to 1 µM"
compound=CC(C)C[C@H](NC(=O)c1ccc(F)cc1)C(=O)Nc1ccc(S(=O)(=O)N[C@@H]2CCOC2)cc1 result_value="0.05 to 1 µM"

# input // query IC50 value for entry "O=C(N[C@@H](Cc1ccccc1)C(=O)Nc1ccc(S(=O)(=O)NC23CC(C2)C3)c(O)c1)c1ccc(F)cc1"
# output 0.05 to 1 µM

# input How about "CC(C)(C)NS(=O)(=O)c1ccc(NC(=O)[C@H](CC2CCNCC2)NC(=O)c2ccc(F)cc2)cc1" ?
# output 0.05 to 1 µM

# input How about "O=C(N[C@@H](CC1CCOCC1)C(=O)Nc1cccc2c(S(=O)(=O)NC3COC3)cccc12)c1ccc(F)cc1" ?
# output 1 to 10 µM

# input How about "CC(C)C[C@H](NC(=O)c1ccc(F)cn1)C(=O)Nc1ccc(S(=O)(=O)NC(C)(C)C(F)(F)F)nc1" ?
# output 0.05 to 1 µM

# input How about "COc1cc(NC(=O)[C@H](CC2CCNCC2)NC(=O)c2ccc(F)cc2)ccc1S(=O)(=O)N[C@@H]1CCOC1" ?
# output 0.05 to 1 µM

# input How about "O=C(N[C@@H](CC1CCOCC1)C(=O)Nc1ccc(S(=O)(=O)NC2CCOCC2)nc1)c1ccc(F)cc1" ?
# output 0.05 to 1 µM

###

Listing of entries alongside the reported IC50.
target: recombinant USP30 (amino acids 57-517 of the human sequence) (Homo sapiens (Human)); test: In vitro USP30 biochemical assay (Ubiquitin-Rhodamine substrate); conditions: 1.5 nM recombinant USP30, 25 nM Ubiquitin-Rhodamine, fluorescence

compound=CC(C)(C)NS(=O)(=O)c1cccc2c(NC(=O)[C@H](Cc3ccccc3)NC(=O)N3CC4(COC4)C3)cccc12 target_entity="recombinant USP30 (amino acids 57-517 of the human sequence) (Homo sapiens (Human))" reported_metric=IC50 result_value="0.05 to 1 µM"
compound=CC(C)(C)NS(=O)(=O)c1cccc2c(NC(=O)[C@H](Cc3ccccc3)NC(=O)N3CCOCC3)cccc12 target_entity="recombinant USP30 (amino acids 57-517 of the human sequence) (Homo sapiens (Human))" reported_metric=IC50 result_value="0.05 to 1 µM"
compound=COCC[C@H](NC(=O)c1ccc(F)cc1)C(=O)Nc1ccc(S(=O)(=O)NC2COC2)cc1 target_entity="recombinant USP30 (amino acids 57-517 of the human sequence) (Homo sapiens (Human))" reported_metric=IC50 result_value="1 to 10 µM"
compound=CO[C@@H]1C[C@@H](C(=O)Nc2ccc(S(=O)(=O)NC(C)(C)C)cc2)N(C(=O)c2ccc(F)cc2)C1 target_entity="recombinant USP30 (amino acids 57-517 of the human sequence) (Homo sapiens (Human))" reported_metric=IC50 result_value="1 to 10 µM"
compound=O=C(N[C@@H](Cc1ccccc1)C(=O)Nc1ccc(S(=O)(=O)NCc2nnc[nH]2)cc1)c1ccc(F)cc1 target_entity="recombinant USP30 (amino acids 57-517 of the human sequence) (Homo sapiens (Human))" reported_metric=IC50 result_value="1 to 10 µM"

# input Enter reported IC50 observed with recombinant USP30 (amino acids 57-517 of the human sequence) (Homo sapiens (Human)) for "CC(C)C[C@H](NC(=O)c1ccc(F)cc1)C(=O)Nc1ccc(S(=O)(=O)NC2COC2)cc1"
# output 0.05 to 1 µM

# input How about "CC(C)(CO)NS(=O)(=O)c1ccc(NC(=O)[C@H](CCO)NC(=O)c2ccc(F)cc2)cc1" ?
# output 1 to 10 µM

# input How about "Cn1nccc1CNS(=O)(=O)c1ccc(NC(=O)[C@H](CC2CCNCC2)NC(=O)c2ccc(F)cc2)cc1" ?
# output 0.05 to 1 µM

###

Listing of entries alongside the reported IC50.
molecular target: recombinant USP30 (amino acids 57-517 of the human sequence) (Homo sapiens (Human), UniProt Q70CQ3); test: In vitro USP30 biochemical assay (Ubiquitin-Rhodamine substrate); settings: 1.5 nM recombinant USP30, 25 nM Ubiquitin-Rhodamine, fluorescence

compound=CC(C)(C)NC(=O)N1CCC(NC(=O)[C@H](Cc2ccccc2)NC(=O)c2ccc(F)cc2)CC1 reported_metric=IC50 result_value="1 to 10 µM"
compound=COc1cc(NC(=O)[C@H](CC2CCOCC2)NC(=O)c2ccc(F)cc2)cnc1S(=O)(=O)NC1CCN(C)CC1 reported_metric=IC50 result_value="1 to 10 µM"
compound=O=C(N[C@@H](CC1CCOCC1)C(=O)Nc1ccc(S(=O)(=O)NC2CCC2)nc1)c1ccc(F)cc1 reported_metric=IC50 result_value="0.05 to 1 µM"
compound=COc1cc(NC(=O)[C@@H]2C[C@@H](C3CCCCC3)CN2C(=O)c2ccc(F)cc2)ccc1S(=O)(=O)NC(C)(C)C reported_metric=IC50 result_value="0.05 to 1 µM"
compound=CN1CCC(C[C@H](NC(=O)c2ccc(F)cc2)C(=O)Nc2ccc(S(=O)(=O)NC3CCOCC3)nc2)CC1 reported_metric=IC50 result_value="0.05 to 1 µM"
compound=CC(C)(CN1CCOCC1)NS(=O)(=O)c1ccc(NC(=O)[C@H](CC2CC2)NC(=O)c2ccc(F)cc2)cc1 reported_metric=IC50 result_value="0.05 to 1 µM"

# input // query IC50 value for entry "COc1cc(NC(=O)[C@@H]2C[C@@H](c3ccccc3)CN2C(=O)c2ccc(F)cc2)ccc1S(=O)(=O)NC(C)(C)CO"
# output 0.05 to 1 µM
